Tested on: 885512-296-R-J2-PDC complex spheroid viability;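 note: spheroids exposed to the compounds for one week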
Assay: Anticancer human tumor 885512-296-R-J2-PDC patient-derived breast carcinoma cell line growth inhibition [GQUAD]
Conditions: curve of first compound; second compound 10 µM
quantity name: IC50

{"columns": ["compound", "experimental system", "IC50"],
 "data": [
  ["CC1COCCN1c1cc(C2(S(C)(=N)=O)CC2)nc(-c2ccnc3[nH]ccc23)n1 (stereo not given) + Cc1cnc(CNC(=O)c2c(=O)c3ccc(N4CCCN(C)CC4)nc3n3c2sc2ccccc23)cn1", "885512-296-R-J2-PDC complex spheroid viability", "< 0.0316 µM"],
  ["Cn1ncnc1[C@H]1c2n[nH]c(=O)c3cc(F)cc(c23)N[C@@H]1c1ccc(F)cc1 + Cc1cnc(CNC(=O)c2c(=O)c3ccc(N4CCCN(C)CC4)nc3n3c2sc2ccccc23)cn1", "885512-296-R-J2-PDC complex spheroid viability", "< 0.000999 µM"],
  ["CC[C@@]1(O)C(=O)OCc2c1cc1n(c2=O)Cc2cc3c(CN(C)C)c(O)ccc3nc2-1 + CN(C)c1ccc(Nc2c3ccc(NC(=O)CCN4CCCC4)cc3nc3cc(NC(=O)CCN4CCCC4)ccc23)cc1", "885512-296-R-J2-PDC complex spheroid viability", "< 0.000999 µM"],
  ["COc1ncnc(C2CC2)c1-c1ncc2cnn(Cc3ccc(-c4nc(C(F)(F)F)cn4C(C)C)cc3)c2n1 + CN(C)c1ccc(Nc2c3ccc(NC(=O)CCN4CCCC4)cc3nc3cc(NC(=O)CCN4CCCC4)ccc23)cc1", "885512-296-R-J2-PDC complex spheroid viability", "< 0.0316 µM"]
]}

Now for a further compound.
IC50 reported for this compound Nc1ccn(C2OC(CO)C(O)C2(F)F)c(=O)n1 (stereo not given) + CN(C)c1ccc(Nc2c3ccc(NC(=O)CCN4CCCC4)cc3nc3cc(NC(=O)CCN4CCCC4)ccc23)cc1 : < 0.0316 µM
